B1: Homeobox protein cut-like 1, residues 548 to 629; numbered along this chain, P39880 (parent)
chain: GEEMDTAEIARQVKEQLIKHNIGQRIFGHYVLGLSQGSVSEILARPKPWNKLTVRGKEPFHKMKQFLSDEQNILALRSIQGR

Variants of: B1
test description: abundance fitness (aPCA) (normalised: wild type 0, dead -1); higher = more abundant; growth selection in yeast, the domain comes from the species named
condition: Homo sapiens
parameter measured: abundance fitness
Please reply with the number alone, leaving off any unit.

[[record]]
alteration = "Q80M"
parameter_measured = "abundance fitness"
recorded_result = -0.079

[[record]]
alteration = "S35P"
parameter_measured = "abundance fitness"
recorded_result = 0.062

[[record]]
alteration = "G1Y"
parameter_measured = "abundance fitness"
recorded_result = 0.075

[[record]]
alteration = "D5I"
parameter_measured = "abundance fitness"
recorded_result = -0.689


What measured abundance fitness goes with `D69V` ?
-0.308

What measured abundance fitness goes with `I79W` ?
-0.09

What measured abundance fitness goes with `E15R` ?
-0.207

What measured abundance fitness goes with `V54M` ?
0.119

What measured abundance fitness goes with `L67H` ?
-1.21

What measured abundance fitness goes with `F60G` ?
-0.952

What measured abundance fitness goes with `A10N` ?
-0.692
